readout: melting point (°C)
Give bare numbers, in °C.

Previously resolved entries follow.
{"columns": ["smilesNotation", "u", "melting point"],
 "data": [
  ["Cc1cc(-c2ccc(C(F)(F)F)nc2)nc(-c2ccnc(-c3cccc(S(N)(=O)=O)c3)c2)n1", "°C", 255],
  ["Nc1ccc(-c2cccc(-c3nc(-c4ccc(Cl)s4)cc(C(F)(F)F)n3)c2)cn1", "°C", 99]
]}

Alright, here's another compound for you.
Q: For CCC(=O)NS(=O)(=O)c1cccc(-c2cc(-c3nc(-c4ccc(C(F)(F)F)nc4)cc(C(F)(F)F)n3)ccn2)c1 , what is its reported melting point?
Ans: 242
